# system_under_test: tau construct K19 (Homo sapiens, UniProt P10636)
# Construct: construct K19 containing three repeats
# Sequence (P10636 with tags, fused parts or gaps isoform P10636-2 limits assumed): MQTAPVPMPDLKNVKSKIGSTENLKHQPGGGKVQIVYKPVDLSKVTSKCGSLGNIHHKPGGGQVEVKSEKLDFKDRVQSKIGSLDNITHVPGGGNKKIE
# test_summary: Thioflavine S assay, inhibition of PHF formation, K19
# condition_summary: ThS fluorescence, 10 μM K19, heparin; read-out: Inhibition of tau aggregation IC50, K19
pIC50: −log10 of the molar value.
reported_property: pIC50

>>> measured_number("O=C(c1ccccc1)c1ccc(O)c(O)c1O [PHF005]")
5.22
>>> measured_number("O=C1c2ccc(O)c(O)c2C(=O)c2c(O)ccc(O)c21 [PHF016, 1,2,5,8-Tetrahydroxy-anthraquinone]")
5.17
>>> measured_number("COc1cccc2c1C(=O)c1c(O)c3c(c(O)c1C2=O)CC(O)(C(C)=O)CC3OC1CC(N)C(O)C(C)O1 (centres unmarked) [Daunorubicin, reference compound]")
6.00
>>> measured_number("COc1cccc2c1C(=O)c1c(O)c3c(c(O)c1C2=O)CC(O)(C(=O)CO)CC3OC1CC(N)C(O)C(C)O1 (centres unmarked) [Adriamycin, reference compound]")
4.75
>>> measured_number("Cc1cc(O)c2c(c1)C(=O)c1cc(O)cc(O)c1C2=O [Emodin, 1,3,8-Trihydroxy-6-methyl-anthraquinone]")
5.62
